# Test system: MDAMB231
# Assay summary: Cell proliferation assay (Alamar Blue)
# Assay type: cell-based
# Condition summary: Homo sapiens, MDA-MB-231, 96 h, MDAMB231 cells, four days
Value type: IC50 (µM)

Below, 5 compounds whose answers are already recorded.
C#Cc1cccc(Nc2nc3cc(C(=O)O)ccc3c3cnc(NCCCOCC)nc23)c1 [drawing 419] = 5.22
CCN(CC)CCNc1ncc2c(n1)c(Nc1ccccc1)nc1cc(C(=O)O)ccc12 [drawing 395] = 10.5
C#Cc1cccc(Nc2nc3cc(C(=O)O)ccc3c3cnc(NCCCN4CCOCC4)nc23)c1 [drawing 402] = 12.5
C#Cc1cccc(Nc2nc3cc(C(=O)O)ccc3c3cncnc23)c1 [drawing 380] = 4.25
Cc1cccc(Nc2nc3cc(C(=O)O)ccc3c3cnccc23)c1 [drawing 427] = 17.5

A. COc1cccc(Nc2nc3cc(C(=O)O)ccc3c3cnc(NC4CC4)nc23)c1 [drawing 431]
B. O=C(O)c1ccc2c(c1)nc(Nc1cccc(Cl)c1)c1ncncc12 [drawing 379]
q: Kindly compare A with B and tell me which has the lower IC50 figure. // respond with label for picked entry
a: B
(B: 1.18 µM, A: 20.1 µM)
